# Tested on: GES1
# ASSAY_OVERVIEW: Cytotoxicity against human GES-1 cells assessed as effect on cell viability at 10 uM after 48 hrs by MTT assay relative to control
# Format: cell-based
# CONDITION_LABEL: ges1, 48 h
ATTRIBUTE_MEASURED: fold change (FC)

# lookup: `O=C(Cn1cc(F)c(=O)[nH]c1=O)NCC[n+]1ccc(/C=C/c2c[nH]c3ccccc23)cc1.[Br-]` on GES1, fold change (FC) = 1.055

I have 3 molecules here; please give me fold change (FC) for each one.
1. O=C(Cn1cc(F)c(=O)[nH]c1=O)OCC[n+]1ccc(/C=C/c2c[nH]c3ccccc23)cc1.[Br-]
2. O=c1[nH]cc(F)c(=O)[nH]1
3. O=c1[nH]c(=O)n(CCSSCC[n+]2ccc(/C=C/c3c[nH]c4ccccc34)cc2)cc1F.[Br-]

OUTPUT:
1. 0.822
2. 0.733
3. 0.978
